- TESTED_SYSTEM: Insulin-degrading enzyme (Mus musculus, UniProt Q9JHR7)
- Sequence (Q9JHR7 whole entry, the tested form may be a part): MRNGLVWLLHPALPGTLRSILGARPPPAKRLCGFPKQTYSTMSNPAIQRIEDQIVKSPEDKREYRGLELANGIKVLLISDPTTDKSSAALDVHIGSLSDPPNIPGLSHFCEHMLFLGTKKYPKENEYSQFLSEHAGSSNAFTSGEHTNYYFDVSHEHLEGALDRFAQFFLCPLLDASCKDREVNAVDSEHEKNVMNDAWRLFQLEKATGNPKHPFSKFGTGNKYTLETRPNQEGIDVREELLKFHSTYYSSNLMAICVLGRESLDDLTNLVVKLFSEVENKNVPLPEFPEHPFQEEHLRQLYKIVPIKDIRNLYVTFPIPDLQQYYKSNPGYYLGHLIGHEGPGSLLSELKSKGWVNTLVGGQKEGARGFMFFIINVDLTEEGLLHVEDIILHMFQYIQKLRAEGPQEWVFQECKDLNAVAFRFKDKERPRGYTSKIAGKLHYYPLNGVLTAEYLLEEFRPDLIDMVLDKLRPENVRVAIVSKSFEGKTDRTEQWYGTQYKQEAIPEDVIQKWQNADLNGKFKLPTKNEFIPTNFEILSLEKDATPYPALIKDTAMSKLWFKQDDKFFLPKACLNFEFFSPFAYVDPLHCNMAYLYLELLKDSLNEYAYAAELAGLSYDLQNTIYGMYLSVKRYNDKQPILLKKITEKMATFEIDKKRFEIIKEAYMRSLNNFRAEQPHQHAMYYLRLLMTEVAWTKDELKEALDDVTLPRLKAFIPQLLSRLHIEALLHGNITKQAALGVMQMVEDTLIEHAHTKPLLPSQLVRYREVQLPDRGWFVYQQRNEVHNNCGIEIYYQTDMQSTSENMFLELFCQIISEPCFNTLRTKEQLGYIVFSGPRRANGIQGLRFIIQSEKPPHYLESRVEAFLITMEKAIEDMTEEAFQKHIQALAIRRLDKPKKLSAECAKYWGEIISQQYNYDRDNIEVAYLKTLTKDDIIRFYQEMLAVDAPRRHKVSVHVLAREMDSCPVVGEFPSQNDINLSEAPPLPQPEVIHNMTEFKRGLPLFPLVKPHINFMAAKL
- PROTOCOL_NOTES: Inhibition of mouse His-tagged IDE (42 to 1019 residues) using fluorophore/quencher-tagged RPPGFSAFK(Dnp)-OH peptide as substrate preincubated for 10 mins followed by substrate addition measured over 5 mins by TR-FRET assay
Peptide text beside a SMILES is read from it.
READOUT_TYPE: IC50 (nM)
# output: bare number, implied unit nM

Look up IC50 for this molecule: "CC(=O)N[C@@H](CCC(=O)O)C(=O)N[C@@H](Cc1c[nH]c2ccccc12)C(=O)N[C@@H](CCCNC(=N)N)C(=O)N[C@@H](Cc1ccccc1)C(=O)N[C@H]1CC(=O)NC[C@@H](C(=O)N[C@@H](CC(C)C)C(=O)N[C@@H](Cc2ccc(O)cc2)C(=O)N[C@@H](CC(C)C)C(=O)N[C@H](C(=O)N[C@@H](CS)C(=O)NCC(N)=O)C(C)C)NC(=O)[C@H](CCC(=O)O)NC(=O)[C@@H]2CCCN2C(=O)[C@H]2CCCN2C(=O)CNC1=O" 22

Look up IC50 for this molecule: "CC(C)C[C@H](NC(=O)[C@H](C)NC(=O)[C@H](CCC(=O)O)NC(=O)[C@@H]1CCCN1C(=O)[C@H]1CCCN1C(=O)[C@H](Cc1ccccc1)NC(=O)[C@H](CCCNC(=N)N)NC(=O)[C@H](Cc1c[nH]c2ccccc12)NC(=O)[C@@H](N)CCC(=O)O)C(=O)N[C@@H](Cc1ccc(O)cc1)C(N)=O" 601

Look up IC50 for this molecule: CC(C)C[C@H](NC(=O)[C@H](C)NC(=O)[C@H](CCC(=O)O)NC(=O)CNC(=O)CNC(=O)[C@H](Cc1ccccc1)NC(=O)[C@H](CCCNC(=N)N)NC(=O)[C@H](Cc1c[nH]c2ccccc12)NC(=O)[C@@H](N)CCC(=O)O)C(=O)N[C@@H](Cc1ccc(O)cc1)C(=O)N[C@@H](CC(C)C)C(=O)N[C@H](C(=O)N[C@@H](CS)C(=O)NCC(N)=O)C(C)C (H-EWRFGGEALYLVCG-NH2) 300
